# credit: ChEMBL document CHEMBL3632612

- Tested on: Escherichia coli
- test_name: Antibacterial activity against Escherichia coli 177 assessed as growth inhibition at 128 to 0.002 mg/L incubated for 18 hrs at 37 degC by agar dilution method
- Assay type: functional
- condition_description: Escherichia coli, 177, 18 h
Entries annotated with measured MIC
recorded_metric: MIC (µg/mL)

> print(dat)
                            compound.string  recorded.metric  assay.result
1  C[C@H]1COc2c(N3CCN(C)CC3)c(F)cc3c(=O)c(C(=O)O)cn1c23.C[C@H]1COc2c(N3CCN(C)CC3)c(F)cc3c(=O)c(C(=O)O)cn1c23.O              MIC         0.019
2  Cc1c(N2CC(N)C2)c(F)cc2c(=O)c(C(=O)O)cn(-c3nc(N)c(F)cc3F)c12              MIC         0.004
3  CCCNC1CN(c2c(F)cc3c(=O)c(C(=O)O)cn(-c4nc(N)c(F)cc4F)c3c2C)C1              MIC         0.012
4  Cc1c(N2CC(NC(C)C)C2)c(F)cc2c(=O)c(C(=O)O)cn(-c3nc(N)c(F)cc3F)c12              MIC          0.01

---

Entries annotated with measured pIC50
- tested_target: DNA gyrase (Escherichia coli, UniProt P0AES4+P0AES6)
- test_name: Inhibition of Escherichia coli DNA gyrase preincubated for 5 mins at 37 degC before addition of relaxed pBR322 as substrate by supercoiling assay
pIC50: −log10 of the molar value.
recorded_metric: pIC50

> print(dat)
                            compound.string  recorded.metric  assay.result
1  CCNC1CN(c2c(F)cc3c(=O)c(C(=O)O)cn(-c4nc(N)c(F)cc4F)c3c2C)C1            pIC50          6.76
2  Cc1c(N2CC(N)C2)c(F)cc2c(=O)c(C(=O)O)cn(-c3nc(N)c(F)cc3F)c12            pIC50          6.54
3  CNC1CN(c2c(F)cc3c(=O)c(C(=O)O)cn(-c4nc(N)c(F)cc4F)c3c2C)C1            pIC50          6.26
4  Cc1c(N2CC(NC(C)(C)C)C2)c(F)cc2c(=O)c(C(=O)O)cn(-c3nc(N)c(F)cc3F)c12            pIC50          6.16
5  Cc1c(N2CC(NC(C)C)C2)c(F)cc2c(=O)c(C(=O)O)cn(-c3nc(N)c(F)cc3F)c12            pIC50          6.36
6  CCCNC1CN(c2c(F)cc3c(=O)c(C(=O)O)cn(-c4nc(N)c(F)cc4F)c3c2C)C1            pIC50          6.39

---

- Test system: Providencia rettgeri
- test_name: Antibacterial activity against Providencia rettgeri W1008 assessed as growth inhibition at 128 to 0.002 mg/L incubated for 18 hrs at 37 degC by agar dilution method
- Type: functional
- condition_description: W1008, 18 h
recorded_metric: MIC (µg/mL)

> print(dat)
                            compound.string  assay.result
1  CCNC1CN(c2c(F)cc3c(=O)c(C(=O)O)cn(-c4nc(N)c(F)cc4F)c3c2C)C1          0.12
2  Cc1c(N2CC(N)C2)c(F)cc2c(=O)c(C(=O)O)cn(-c3nc(N)c(F)cc3F)c12         0.061
3  CNC1CN(c2c(F)cc3c(=O)c(C(=O)O)cn(-c4nc(N)c(F)cc4F)c3c2C)C1         0.077
4  Cc1c(N2CC(NC(C)C)C2)c(F)cc2c(=O)c(C(=O)O)cn(-c3nc(N)c(F)cc3F)c12          0.17
5  Cc1c(N2CC(NC(C)(C)C)C2)c(F)cc2c(=O)c(C(=O)O)cn(-c3nc(N)c(F)cc3F)c12          0.57
6  CCCNC1CN(c2c(F)cc3c(=O)c(C(=O)O)cn(-c4nc(N)c(F)cc4F)c3c2C)C1          0.21
7  C[C@H]1COc2c(N3CCN(C)CC3)c(F)cc3c(=O)c(C(=O)O)cn1c23.C[C@H]1COc2c(N3CCN(C)CC3)c(F)cc3c(=O)c(C(=O)O)cn1c23.O          0.12
